# Measured on: PI3K delta (Homo sapiens)
# Sequence (O00329 whole entry): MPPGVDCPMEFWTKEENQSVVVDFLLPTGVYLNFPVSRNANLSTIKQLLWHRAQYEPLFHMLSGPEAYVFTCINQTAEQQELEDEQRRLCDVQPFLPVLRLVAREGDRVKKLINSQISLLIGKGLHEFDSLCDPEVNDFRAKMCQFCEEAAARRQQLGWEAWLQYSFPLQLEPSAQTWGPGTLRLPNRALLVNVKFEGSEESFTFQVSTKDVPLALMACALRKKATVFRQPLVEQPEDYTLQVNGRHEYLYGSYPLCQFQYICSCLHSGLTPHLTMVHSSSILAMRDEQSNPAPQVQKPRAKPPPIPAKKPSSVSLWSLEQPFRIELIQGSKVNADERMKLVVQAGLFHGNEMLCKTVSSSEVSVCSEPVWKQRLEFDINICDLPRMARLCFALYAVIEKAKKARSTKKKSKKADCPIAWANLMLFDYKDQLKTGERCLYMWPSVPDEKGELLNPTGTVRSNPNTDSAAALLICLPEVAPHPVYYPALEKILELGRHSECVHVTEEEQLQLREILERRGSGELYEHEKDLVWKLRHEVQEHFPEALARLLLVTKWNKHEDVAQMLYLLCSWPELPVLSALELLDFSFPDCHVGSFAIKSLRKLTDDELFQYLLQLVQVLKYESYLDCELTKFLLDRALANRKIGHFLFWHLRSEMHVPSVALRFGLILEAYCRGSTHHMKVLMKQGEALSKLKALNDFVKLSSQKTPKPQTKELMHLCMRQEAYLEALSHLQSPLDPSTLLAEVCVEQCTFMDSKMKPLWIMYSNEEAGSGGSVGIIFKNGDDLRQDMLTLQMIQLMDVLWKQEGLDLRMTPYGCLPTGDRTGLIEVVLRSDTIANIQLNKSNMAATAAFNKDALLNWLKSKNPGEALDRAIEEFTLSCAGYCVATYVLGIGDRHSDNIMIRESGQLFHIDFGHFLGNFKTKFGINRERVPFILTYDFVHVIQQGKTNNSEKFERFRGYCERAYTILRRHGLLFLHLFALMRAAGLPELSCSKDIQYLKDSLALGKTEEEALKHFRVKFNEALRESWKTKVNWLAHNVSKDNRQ
# Sequence (P27986 whole entry partner): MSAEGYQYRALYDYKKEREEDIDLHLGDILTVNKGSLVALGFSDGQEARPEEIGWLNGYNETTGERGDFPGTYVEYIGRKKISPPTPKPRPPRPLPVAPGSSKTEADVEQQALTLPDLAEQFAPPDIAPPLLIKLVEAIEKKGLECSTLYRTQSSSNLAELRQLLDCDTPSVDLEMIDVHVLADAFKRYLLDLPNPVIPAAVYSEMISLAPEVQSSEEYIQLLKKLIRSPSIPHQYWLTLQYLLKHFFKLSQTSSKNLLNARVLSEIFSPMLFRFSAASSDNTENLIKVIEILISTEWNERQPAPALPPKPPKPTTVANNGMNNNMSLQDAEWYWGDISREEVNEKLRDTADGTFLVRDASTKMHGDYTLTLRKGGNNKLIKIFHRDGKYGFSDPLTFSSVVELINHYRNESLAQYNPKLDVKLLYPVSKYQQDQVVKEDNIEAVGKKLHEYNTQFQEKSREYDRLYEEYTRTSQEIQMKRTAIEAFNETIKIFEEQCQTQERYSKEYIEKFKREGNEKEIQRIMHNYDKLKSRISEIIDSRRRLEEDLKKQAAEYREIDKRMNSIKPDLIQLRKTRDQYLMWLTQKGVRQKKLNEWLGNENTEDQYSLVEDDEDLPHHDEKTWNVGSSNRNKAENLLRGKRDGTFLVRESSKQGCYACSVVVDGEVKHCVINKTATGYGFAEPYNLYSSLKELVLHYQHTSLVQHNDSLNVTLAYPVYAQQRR
# Measurement description: Luciferase-coupled chemiluminescence kinase assay (ATP consumption, KinaseGlo)
pIC50: −log10 of the molar value.
Measured property: pIC50

• Cn1c(C(=O)NCC2CC2)nc2c(N3CCC4(C3)C(=O)Nc3ccccc34)ncnc21 (stereo not shown) = 5.82 to 6.30
• CCn1c(C(=O)N2CCC(F)(F)C2)nc2c(N3CCC4(CC3)C(=O)Nc3ccccc34)ncnc21 = > 7.30
• Cn1cc(-c2nc3c(N4CCC(c5c[nH]c6ccccc56)CC4)ncnc3n2C)cn1 = 6.30 to 6.60
• Cn1c(-c2ccoc2)nc2c(N3CCC(n4c(=O)[nH]c5ccccc54)CC3)ncnc21 = 6.60 to 7.30
• Cn1c(C(=O)NCC(C)(C)C)nc2c(N3CCC4(CC3)C(=O)Nc3ccccc34)ncnc21 = 6.60 to 7.30
• Cn1c(C(=O)NCC2CC2)nc2c(N3CCC(c4c[nH]c5ccccc45)CC3)ncnc21 = 5.82 to 6.30
• CCCc1nnc(-c2nc3c(N4CCC5(CC4)C(=O)Nc4ccccc45)ncnc3n2CC)o1 = > 7.30
• Cn1c(-c2cnco2)nc2c(N3CCC(n4c(=O)[nH]c5ccccc54)CC3)ncnc21 = 6.60 to 7.30
• Cn1c(C(=O)NCCc2ccc(Cl)cc2)nc2c(N3CCC(n4c(=O)[nH]c5ccccc54)CC3)ncnc21 = 5.82 to 6.30
• Cn1c(C(=O)NCC2CC2)nc2c(N3CCC(N4C(=O)Cc5ccccc54)CC3)ncnc21 = 6.60 to 7.30
